# Subject Of Test: Cytochrome P450 1A2 (Homo sapiens) (UniProt P05177)
# Sequence (P05177 whole entry, looked up): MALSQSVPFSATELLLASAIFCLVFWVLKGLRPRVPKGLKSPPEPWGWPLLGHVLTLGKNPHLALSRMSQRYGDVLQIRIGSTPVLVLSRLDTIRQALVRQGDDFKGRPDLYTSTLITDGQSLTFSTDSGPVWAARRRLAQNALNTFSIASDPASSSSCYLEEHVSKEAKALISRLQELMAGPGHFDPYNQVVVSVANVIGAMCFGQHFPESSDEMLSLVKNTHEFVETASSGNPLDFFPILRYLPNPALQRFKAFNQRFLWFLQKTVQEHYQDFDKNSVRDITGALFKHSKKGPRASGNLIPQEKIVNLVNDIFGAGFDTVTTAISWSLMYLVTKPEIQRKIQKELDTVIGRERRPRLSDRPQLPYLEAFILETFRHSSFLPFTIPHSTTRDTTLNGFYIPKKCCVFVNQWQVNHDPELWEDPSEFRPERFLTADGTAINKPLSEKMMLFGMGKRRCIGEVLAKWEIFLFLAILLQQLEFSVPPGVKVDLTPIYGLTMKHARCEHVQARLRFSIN
# Method Notes: p450-cyp1a2 (AID 410)
# Condition Details: recombinant CYP1A2, luciferin-ME demethylation, luminescence; series mostly up to 11.4 µM
Results filed as inconclusive are left out. Calls of active or inactive are those of the source. Calls come from the whole dose curve.
Labels: active, inactive

Molecular String: COc1ncc2nc(-c3cc(F)cc(F)c3)c(=O)n(C3CC3)c2n1
Group: active

Molecular String: CCCCC/C=C\C[C@H](O)/C=C\c1cccc(C[C@H](O)CCCCO)n1
Group: inactive

Molecular String: CNc1ncnc2c1ncn2[C@H]1C[C@@H](OP(=O)(O)O)[C@H](COP(=O)(O)O)O1
Group: inactive

Molecular String: Cc1n[nH]c2ccccc2c1=O
Group: active

Molecular String: C1CCN(CC[C@@H]2CCCCN2)CC1
Group: inactive

Molecular String: COCCn1c(=O)c(-c2ccccc2)nc2cnc(Nc3ccccc3)nc21
Group: active

Molecular String: CCOC(=O)C1=C(C)NC(=O)N[C@@H]1c1coc2cc(C)cc(C)c2c1=O
Group: active

Molecular String: CCN(CCO)C[C@H]1CCC[C@H]2CCCC[C@@H]21
Group: active

Molecular String: NN(CC(=O)O)CC(=O)O
Group: inactive

Molecular String: CSc1nnnc2ccccc12
Group: active

Molecular String: Cc1nc2cnc(OCc3ccccc3)nc2n(Cc2ccc(F)cc2)c1=O
Group: active

Molecular String: O=C(O)Cc1c(O)ccc2ccccc12
Group: inactive
